# TESTED_TARGET: Cyclin-dependent kinase 5/CDK5 activator 1 (Homo sapiens, UniProt Q00535)
# Sequence (Q00535 whole entry): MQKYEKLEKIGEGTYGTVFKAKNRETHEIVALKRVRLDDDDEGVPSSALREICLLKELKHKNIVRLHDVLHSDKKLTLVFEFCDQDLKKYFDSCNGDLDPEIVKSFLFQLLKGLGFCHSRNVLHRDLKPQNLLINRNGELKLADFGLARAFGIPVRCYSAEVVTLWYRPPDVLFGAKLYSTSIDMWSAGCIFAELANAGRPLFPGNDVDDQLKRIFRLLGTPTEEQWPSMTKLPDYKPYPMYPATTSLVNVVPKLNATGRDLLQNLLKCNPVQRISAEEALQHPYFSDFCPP
# Sequence (Q15078 whole entry, further chain): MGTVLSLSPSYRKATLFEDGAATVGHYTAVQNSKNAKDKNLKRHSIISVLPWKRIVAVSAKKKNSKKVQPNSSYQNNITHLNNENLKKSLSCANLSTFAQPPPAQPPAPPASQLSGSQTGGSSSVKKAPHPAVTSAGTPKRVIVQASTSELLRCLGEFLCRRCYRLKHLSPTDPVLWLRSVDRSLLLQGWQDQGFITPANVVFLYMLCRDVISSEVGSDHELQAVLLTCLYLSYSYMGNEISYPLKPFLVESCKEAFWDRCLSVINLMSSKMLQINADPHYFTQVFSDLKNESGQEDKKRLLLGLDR
# PROTOCOL_TEXT: Inhibition of human recombinant CDK5/p25 using histone H1 and [gamma33P]ATP as substrate after 30 min by scintillation counting
pIC50: −log10 of the molar value.
If the reported pIC50 equals or exceeds 6, assign Fulfilled. If not, assign Not fulfilled.

>>> label_class("CC(C)n1cnc2c(Nc3ccc(-c4cncnc4)cc3)nc(NC(C)(C)CO)nc21")
"Fulfilled"
>>> label_class("CC(C)n1cnc2c(Nc3cccc(-c4ncccn4)c3)nc(NC(CO)CO)nc21")
"Fulfilled"
>>> label_class("CC(C)n1cnc2c(Nc3cccc(-c4cncnc4)c3)nc(NC(C)(C)CO)nc21")
"Fulfilled"

[ask] Entry `CC(C)n1cnc2c(Nc3cccc(-c4ncccn4)c3)nc(Cl)nc21` : is its pIC50 no less than 6?
[reply] Not fulfilled

[ask] Hi, just wondering whether `CC(C)n1cnc2c(Nc3cccc(-c4ncccn4)c3)nc(NC(C)(C)CO)nc21` shows pIC50 of 6 or higher.
[reply] Fulfilled

[ask] Tell me whether pIC50 is at least 6 here: `CC(C)n1cnc2c(Nc3ccc(-c4cncnc4)cc3)nc(Cl)nc21`
[reply] Not fulfilled

[ask] Record `CC(C)n1cnc2c(Nc3ccc(-c4cncnc4)cc3)nc(NC(CO)CO)nc21` ; criterion: pIC50 no lower than 6. Met?
[reply] Fulfilled

# credit: ChEMBL document CHEMBL3045291
